Recorded below: IC50, system EML4-ALK wt v1 in NIH-3T3 cells (Homo sapiens, UniProt Q9UM73).

{"smilesInput": "COc1ccc(F)cc1[C@@H](C)Oc1cc(-c2cccnc2CO)cnc1N", "readoutName": "IC50", "dataValue": "138 nM"}
{"smilesInput": "Cc1nc(CO)sc1-c1cnc(N)c(O[C@H](C)c2cc(F)ccc2-n2nccn2)c1", "readoutName": "IC50", "dataValue": "9.92 nM"}
{"smilesInput": "C[C@@H](Oc1cc(-c2cnn(C3CCNCC3)c2)cnc1N)c1cc(F)ccc1-n1nccn1", "readoutName": "IC50", "dataValue": "6.58 nM"}

Prompt: Can you share its IC50? I mean this compound: COc1cc(C(N)=O)ccc1-c1cnc(N)c(O[C@H](C)c2cc(F)ccc2-n2nccn2)c1
Response: 9.29 nM
